- System: HL-60(TB) leukemia
- Protocol Description: NCI tumour cell line growth inhibition, 48 h; in the data active means GI50 below about 0.43 µM; inactive means the rest
Choose the fitting class; nothing outside yes (1) = active, no (0) = inactive is accepted.

Check out these entries, answers already filled in.
{"columns": ["Molecule", "Label Class"],
 "data": [
  ["Cc1cc2ncnn2cc1Nc1ncc2c(n1)n(C1CCOCC1)c(=O)n2C", "no (0)"],
  ["COc1ccc(-c2nc3ccccn3c2/C=C/C(=O)c2cc(OC)c(OC)c(OC)c2)cc1OC", "no (0)"],
  ["COc1ccc(C(=O)c2cc(C)c(OC)c(C)c2)cc1OC(=O)CCl", "yes (1)"],
  ["CC12OC(C(=O)C13CC3)C1C(=O)c3ccc4c(ccc5ccccc54)c3C(=O)C12 (centres undefined)", "no (0)"],
  ["S=c1ssc(N2CCOCC2)c1Cl", "no (0)"],
  ["CCc1nc2cc(F)c(/C=C/C(=O)NO)cc2c(=O)n1CCc1ccccc1", "yes (1)"],
  ["COc1ccc(C[N+](C)(C)N)cc1OC", "no (0)"],
  ["COc1ccccc1CNCCCN1C(=O)c2ccc3c4c(ccc(c24)C1=O)C(=O)N(CCCNCCNCCCN)C3=O", "no (0)"]
]}

# ---- query molecule ----
Query string: Please state the recorded outcome for this molecule: C/C(=N\Nc1ccc(Cl)cn1)c1ccc2ccccc2n1
Result string: no (0)

---

Item-by-item account of GI50
- Test system: NCI/ADR-RES ovarian
- Protocol Description: NCI tumour cell line growth inhibition, 48 h

{"columns": ["Compound", "GI50"],
 "data": [
  ["CCOC(=O)C1CCN(S(=O)(=O)/N=C2/NC(=O)NC2=C(Cl)Cl)CC1", "4.36 µM"]
]}

Query string: Would you kindly share the measured GI50 for O=c1cc(NCC(O)CN2CCCC2)n(Cc2ccccc2)c(=O)n1Cc1ccccc1 (centres undefined) ?
Result string: > 100 µM

Query string: Would you kindly share the measured GI50 for C=C(C)[C@@H]1CC[C@]2(CO)CC[C@]3(C)[C@H](CC[C@@H]4[C@@]5(C)C=C(C#N)C(=O)C(C)(C)[C@@H]5CC[C@]43C)[C@@H]12 ?
Result string: 1.81 µM

Query string: Would you kindly share the measured GI50 for C=CCCCCC/C=C\[C@@H](O)C#CC#C/C=C/CO ?
Result string: > 100 µM

Query string: Would you kindly share the measured GI50 for Cc1cc(C(=O)Nc2ccc3cc(CN4CCOCC4)ccc3n2)c(C)n1-c1ccccc1 ?
Result string: 1 µM

Query string: Would you kindly share the measured GI50 for CC1(C)C(=O)/C(=C\c2cccnc2)C[C@]2(C)[C@H]3CC[C@@H]4[C@H]5[C@H](C(=O)/C=C/c6cccnc6)CC[C@]5(C(=O)O)CC[C@@]4(C)[C@]3(C)CC[C@@H]12 ?
Result string: 3.08 µM

Query string: Would you kindly share the measured GI50 for C=C1C(=O)O[C@H]2[C@H]1CC/C(COC(=O)NCCCCNC(=O)OC/C1=C/CC[C@@]3(C)O[C@H]3[C@H]3OC(=O)C(=C)[C@@H]3CC1)=C\CC[C@@]1(C)O[C@@H]21 ?
Result string: 37.7 µM

Query string: Would you kindly share the measured GI50 for Nc1ccccc1C#C/C=C\C#Cc1ccccc1N ?
Result string: 2.26 µM

Query string: Would you kindly share the measured GI50 for N#Cc1cc(-c2cc3ccccc3o2)oc1N ?
Result string: 3.71 µM
